Assay: Plasma protein in dog assessed as unbound fraction
Assay type: ADME, cell-free, Canis lupus familiaris
Metric: fraction unbound

Query block: Record request: fraction unbound value, item CC(C)c1c2cc(-c3nc(Nc4ccc(N5CCNCC5)cn4)ncc3F)ccc2nn1C [CULMERCICLIB]
Result block: 0.051

----------
Assay: Half life in Beagle dog at 0.6 mg/kg, iv
Assay type: ADME, organism-based, Canis lupus familiaris
Conditions: in vivo
Metric: half-life

Query block: Record request: half-life value, item `CC(C)c1c2cc(-c3nc(Nc4ccc(N5CCNCC5)cn4)ncc3F)ccc2nn1C`
Result block: 7.8 h

----------
half-life values by entry
Assay: Half life in CD-1 mouse at 0.5 mg/kg, iv
Format: ADME, organism-based
Details: in vivo

- CC(C)c1c2cc(-c3nc(Nc4ccc(N5CCNCC5)cn4)ncc3F)ccc2nn1C: 2.3 h

As a next step, examine the compound that follows.
Query block: Record request: half-life value, item `CCN1CCN(Cc2ccc(Nc3ncc(F)c(-c4cc(F)c5nc(C)n(C(C)C)c5c4)n3)nc2)CC1`
Result block: 1.9 h

----------
Experiment: AUC (0 to last) in Beagle dog at 2 mg/kg, po
Format: ADME, organism-based, Canis lupus familiaris
Settings: in vivo
Metric: AUC(0-t) (µM·h)
Lab book: enter the figure in µM·h, no units written.

Query block: Record request: AUC(0-t) value, item `CC(C)c1c2cc(-c3nc(Nc4ccc(N5CCNCC5)cn4)ncc3F)ccc2nn1C`
Result block: 1.24

----------
Test: Oral bioavailability in Beagle dog at 2 mg/kg
Type: ADME, organism-based, Canis lupus familiaris
Details: in vivo
Metric: bioavailability (%)
Lab book: enter the figure in %, no units written.

Query block: Record request: bioavailability value, item `CC(C)c1c2cc(-c3nc(Nc4ccc(N5CCNCC5)cn4)ncc3F)ccc2nn1C`
Result block: 56

----------
Assay: AUC (0 to last) in Sprague-Dawley rat at 6 mg/kg, po
Type: ADME, organism-based
Settings: in vivo
Metric: AUC(0-t) (µM·h)
Lab book: enter the figure in µM·h, no units written.

Query block: Record request: AUC(0-t) value, item `CC(C)c1c2cc(-c3nc(Nc4ccc(N5CCNCC5)cn4)ncc3F)ccc2nn1C`
Result block: 5.88

----------
Assay: Volume of distribution at steady state in Beagle dog at 0.6 mg/kg, iv
Format: ADME, organism-based, Canis lupus familiaris
Details: in vivo, read-out: Vdss
Metric: Vd (L/kg)
Lab book: enter the figure in L/kg, no units written.

Query block: Record request: Vd value, item `CC(C)c1c2cc(-c3nc(Nc4ccc(N5CCNCC5)cn4)ncc3F)ccc2nn1C`
Result block: 17.1

----------
Target: Cytochrome P450 1A2 (Homo sapiens, UniProt P05177)
Sequence (P05177 whole entry): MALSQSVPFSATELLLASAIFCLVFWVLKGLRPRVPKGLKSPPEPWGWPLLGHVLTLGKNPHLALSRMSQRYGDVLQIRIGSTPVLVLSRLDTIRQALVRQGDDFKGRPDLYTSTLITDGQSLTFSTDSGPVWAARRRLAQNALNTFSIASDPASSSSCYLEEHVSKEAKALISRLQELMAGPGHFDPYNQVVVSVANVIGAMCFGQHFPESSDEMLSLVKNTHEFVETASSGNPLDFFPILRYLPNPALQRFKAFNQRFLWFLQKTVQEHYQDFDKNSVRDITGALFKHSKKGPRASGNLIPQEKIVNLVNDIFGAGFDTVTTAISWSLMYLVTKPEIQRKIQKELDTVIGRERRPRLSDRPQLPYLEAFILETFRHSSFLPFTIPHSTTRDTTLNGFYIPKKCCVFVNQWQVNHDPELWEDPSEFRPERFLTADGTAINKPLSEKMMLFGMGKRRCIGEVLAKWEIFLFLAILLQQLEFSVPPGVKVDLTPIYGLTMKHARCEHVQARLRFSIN
Metric: IC50

Query block: Record request: IC50 value, item `CC(C)c1c2cc(-c3nc(Nc4ccc(N5CCNCC5)cn4)ncc3F)ccc2nn1C`
Result block: > 50 µM

----------
Experiment: Plasma protein in rat assessed as unbound fraction
Type: ADME, cell-free
Metric: fraction unbound
Lab note: jot down the number only; don't add units.

Query block: Record request: fraction unbound value, item `CC(C)c1c2cc(-c3nc(Nc4ccc(N5CCNCC5)cn4)ncc3F)ccc2nn1C`
Result block: 0.025

----------
Assay: Cmax in Beagle dog at 2 mg/kg, po
Type: ADME, organism-based, Canis lupus familiaris
Conditions: in vivo
Metric: Cmax (nM)
Lab book: enter the figure in nM, no units written.

Query block: Record request: Cmax value, item CC(C)c1c2cc(-c3nc(Nc4ccc(N5CCNCC5)cn4)ncc3F)ccc2nn1C [CULMERCICLIB]
Result block: 109

----------
Test: Aqueous solubility of compound at pH <=4.5
Format: physicochemical
Metric: solubility

Query block: Record request: solubility value, item `CC(C)c1c2cc(-c3nc(Nc4ccc(N5CCNCC5)cn4)ncc3F)ccc2nn1C`
Result block: > 2000 µg/mL

----------
Assay: Cmax in Sprague-Dawley rat at 6 mg/kg, po
Format: ADME, organism-based
Conditions: in vivo
Metric: Cmax (nM)
Lab book: enter the figure in nM, no units written.

Query block: Record request: Cmax value, item `CC(C)c1c2cc(-c3nc(Nc4ccc(N5CCNCC5)cn4)ncc3F)ccc2nn1C`
Result block: 415

----------
Molecular target: CDK6/cyclin D1 (Homo sapiens)
Sequence (P24385 whole entry): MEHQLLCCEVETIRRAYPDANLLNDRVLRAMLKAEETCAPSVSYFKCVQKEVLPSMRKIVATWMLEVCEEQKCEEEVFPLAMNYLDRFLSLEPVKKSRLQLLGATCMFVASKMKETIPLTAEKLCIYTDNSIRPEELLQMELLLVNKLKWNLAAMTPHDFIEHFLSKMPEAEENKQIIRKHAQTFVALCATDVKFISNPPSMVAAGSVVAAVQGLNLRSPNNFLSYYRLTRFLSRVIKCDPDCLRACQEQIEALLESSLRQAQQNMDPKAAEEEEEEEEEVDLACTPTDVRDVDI
Sequence (Q00534 whole entry): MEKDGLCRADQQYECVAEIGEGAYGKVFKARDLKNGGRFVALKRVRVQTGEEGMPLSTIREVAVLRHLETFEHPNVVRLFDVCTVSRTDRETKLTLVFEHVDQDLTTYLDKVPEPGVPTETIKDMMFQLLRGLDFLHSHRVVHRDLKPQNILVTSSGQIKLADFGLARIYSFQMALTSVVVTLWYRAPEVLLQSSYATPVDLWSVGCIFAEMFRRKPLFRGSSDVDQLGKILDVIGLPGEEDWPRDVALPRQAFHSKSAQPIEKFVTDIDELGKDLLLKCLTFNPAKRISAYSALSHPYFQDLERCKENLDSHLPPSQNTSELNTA
Assay: Inhibition of CDK6/Cyclin D1 (unknown origin)
pIC50 values by entry
Convention used: pIC50 is expressed as -log10 of the molar concentration.

Examples with their reported pIC50 follow.
• CCN1CCN(Cc2ccc(Nc3ncc(F)c(-c4ccc5nn(C)c(C(C)C)c5c4)n3)nc2)CC1 [ECIRUCICLIB] = 8.74
• CC(C)c1c2cc(-c3nc(Nc4ccc(N5CC6CCC(C5)N6)cn4)ncc3F)ccc2nn1C = 9.05

As a next step, examine the compound that follows.
Query block: Record request: pIC50 value, item CC(C)c1c2cc(-c3nc(Nc4ccc(N5CCNC(CO)C5)cn4)ncc3F)ccc2nn1C (stereo not drawn)
Result block: 9.14
